Assay: qHTS assay to identify small molecule agonists of the retinoic acid receptor (RAR) signaling pathway (AID 1159553); note: potency is the fitted concentration of half-maximal effect; for activation: % is set by controls: 0 for no effect and ±100 for the full control effect
Conditions: C3RL4 RARE luciferase reporter, agonist, 6 h; series mostly up to 73.3 µM
From the text: National Center for Advancing Translational Sciences [NCATS] NIH Chemical Genomics Center [NCGC] U.S. Environmental Protection Agency [EPA] National Institutes of Environmental Health Sciences [NIEHS] National Toxicology Program [NTP] […]
Inconclusive results are not listed. The source made the active and inactive calls. Calls come from the whole dose curve; as a rule, active = well fitted activation curve with a large enough effect in the repeat runs; inconclusive = weak or mixed curves, or effect the other way; inactive = no such curve, though single readings can be large or run the other way.
ASSAY METRIC: Potency

// worked examples, Potency included
{"COMPOUND": "C=CC(=O)OCC(CO)(COCC(COC(=O)C=C)(COC(=O)C=C)COC(=O)C=C)COC(=O)C=C", "ASSAY METRIC": "Potency", "DATA VALUE": "0.957 µM (active)"}
{"COMPOUND": "COc1cccc2c1C(=O)c1c(O)c3c(c(O)c1C2=O)C[C@@](O)(C(=O)CO)C[C@@H]3O[C@H]1C[C@H](N)[C@H](O[C@@H]2CCCCO2)[C@H](C)O1", "ASSAY METRIC": "Potency", "DATA VALUE": "inactive"}
{"COMPOUND": "CCN(C(=O)c1cc(C)cc(OC[C@H](C)Nc2ccncc2)c1)C(C)C", "ASSAY METRIC": "Potency", "DATA VALUE": "inactive"}
{"COMPOUND": "CCCCC(CC)COP(=O)(O)OCC(CC)CCCC (stereo unspecified)", "ASSAY METRIC": "Potency", "DATA VALUE": "inactive"}
{"COMPOUND": "NNc1nc(-c2ccc([N+](=O)[O-])cc2)cs1", "ASSAY METRIC": "Potency", "DATA VALUE": "54.5 µM (active)"}

Kindly review the next compound as well.
*Q* Identify measured Potency associated with `COc1cc(/C=C/C(=O)O[C@H]2CC[C@]34C[C@]35CC[C@]3(C)[C@@H]([C@H](C)CCC=C(C)C)CC[C@@]3(C)[C@@H]5CC[C@H]4C2(C)C)ccc1O`
*A* inactive

----------
Target: Peroxisome proliferator-activated receptor delta (Homo sapiens) (UniProt Q03181)
Sequence (Q03181 whole entry, looked up): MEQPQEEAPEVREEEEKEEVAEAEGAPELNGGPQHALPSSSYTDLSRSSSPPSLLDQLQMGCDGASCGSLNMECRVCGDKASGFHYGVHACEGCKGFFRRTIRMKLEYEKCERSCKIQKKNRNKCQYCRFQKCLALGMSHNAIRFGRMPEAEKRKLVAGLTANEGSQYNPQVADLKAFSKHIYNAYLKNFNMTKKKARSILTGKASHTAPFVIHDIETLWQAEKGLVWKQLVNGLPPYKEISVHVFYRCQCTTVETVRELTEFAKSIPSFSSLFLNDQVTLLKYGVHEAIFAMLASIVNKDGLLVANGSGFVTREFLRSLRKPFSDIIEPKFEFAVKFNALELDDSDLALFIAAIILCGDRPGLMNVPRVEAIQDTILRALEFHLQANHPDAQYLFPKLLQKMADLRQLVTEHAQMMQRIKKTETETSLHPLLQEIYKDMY
Experiment: qHTS assay to identify small molecule antagonists of the peroxisome proliferator-activated receptor delta (PPARd) signaling pathway (AID 743215);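 note: cells stimulated with agonist L165041 at 300 nM final during compound exposure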
Settings: HEK293H PPARd-UAS-bla, beta-lactamase FRET ratio, antagonist, 17 h; series mostly up to 62 µM
Records with an inconclusive call do not appear. Calls of active or inactive are those of the source. Calls come from the whole dose curve; as a rule, active = well fitted inhibition curve with a large enough effect in the signal ratio in the repeat runs (not every such curve was filed as active); inconclusive = weak or mixed curves, or effect the other way; inactive = no such curve, though single readings can be large or run the other way; the % refers to the signal ratio.
Please reply with one of these outcomes: true (1) = active, false (0) = inactive

Completed entries (count: 5):
{"COMPOUND": "Nc1c(Cl)cc(Cl)cc1Cl", "MEASUREMENT TARGET": "Peroxisome proliferator-activated receptor delta (Homo sapiens) (UniProt Q03181)", "QUALITATIVE LABEL": "false (0)"}
{"COMPOUND": "CCOc1ccc2nc3cc(N)ccc3c(N)c2c1", "MEASUREMENT TARGET": "Peroxisome proliferator-activated receptor delta (Homo sapiens) (UniProt Q03181)", "QUALITATIVE LABEL": "false (0)"}
{"COMPOUND": "C[C@@H](NCCCc1cccc(C(F)(F)F)c1)c1cccc2ccccc12", "MEASUREMENT TARGET": "Peroxisome proliferator-activated receptor delta (Homo sapiens) (UniProt Q03181)", "QUALITATIVE LABEL": "true (1)"}
{"COMPOUND": "N#CC1(c2ccc(F)cc2)CCC(=O)CC1", "MEASUREMENT TARGET": "Peroxisome proliferator-activated receptor delta (Homo sapiens) (UniProt Q03181)", "QUALITATIVE LABEL": "false (0)"}
{"COMPOUND": "CSc1cnc(C)cn1", "MEASUREMENT TARGET": "Peroxisome proliferator-activated receptor delta (Homo sapiens) (UniProt Q03181)", "QUALITATIVE LABEL": "false (0)"}

*Q* What outcome does the record of this test show for `CCN(CCC#N)c1ccc(N=Nc2c(Cl)cc([N+](=O)[O-])cc2Cl)cc1` ?
*A* false (0)

*Q* What outcome does the record of this test show for `CC1=C(/C=C/C(C)=C/C=C/C(C)=C/C=O)C(C)(C)CCC1` ?
*A* true (1)

*Q* What outcome does the record of this test show for `CC(C)(C)C(=O)OCOC(=O)[C@@H]1N2C(=O)[C@@H](NC(=O)[C@H](N)c3ccccc3)[C@H]2SC1(C)C` ?
*A* false (0)

*Q* What outcome does the record of this test show for `O=C(NO)C1(NS(=O)(=O)c2ccc(Oc3ccc(F)cc3)cc2)CCOCC1` ?
*A* false (0)

----------
Assay: qHTS assay to identify small molecule antagonists of the progesterone receptor (PR) signaling pathway - cell viability counter screen (AID 1346798); note: nearly all actives have a fitted effect of over 50% in size
Details: PR-UAS-bla HEK293T viability, CellTiter-Glo luminescence, 16 h; series mostly up to 92.4 µM
Records with an inconclusive call do not appear. Activity calls are given as the source filed them. Calls come from the whole dose curve; as a rule, active = well fitted cell-killing curve with a large enough effect in the repeat runs; inconclusive = weak or mixed curves, or effect the other way; inactive = no such curve, though single readings can be large or run the other way.
Please reply with one of these outcomes: yes = active, no = inactive

Completed entries (count: 5):
{"STRUCTURE SMILES STRING": "O=C1c2c(O)ccc(Nc3ccc(CCO)cc3)c2C(=O)c2c([N+](=O)[O-])ccc(O)c21", "QUALITATIVE LABEL": "no"}
{"STRUCTURE SMILES STRING": "C[C@@H](NCCCc1cccc(C(F)(F)F)c1)c1cccc2ccccc12", "QUALITATIVE LABEL": "yes"}
{"STRUCTURE SMILES STRING": "COC(=O)c1cc(Cl)ccc1OC", "QUALITATIVE LABEL": "no"}
{"STRUCTURE SMILES STRING": "C[C@]12CCC(=O)C=C1CC[C@@H]1[C@@H]2[C@@H](O)C[C@@]2(C)[C@H]1CC[C@]2(O)C(=O)COC(=O)CCC(=O)O", "QUALITATIVE LABEL": "no"}
{"STRUCTURE SMILES STRING": "CCCCCCCCCCCCCCCCCC[N+](C)(C)C", "QUALITATIVE LABEL": "yes"}

*Q* What outcome does the record of this test show for `Cc1cc(CCN2CCN(c3nsc4ccccc34)CC2)cc2c1NC(=O)CC2(C)C` ?
*A* yes

*Q* What outcome does the record of this test show for `OCCN1CCN(CC/C=C2/c3ccccc3Sc3ccc(C(F)(F)F)cc32)CC1` ?
*A* yes

----------
Assay: qHTS RealTime-Glo MT Cell Viability Assay in HepG2 cells - 32 hour (AID 1224877); note: nearly all actives have a fitted effect of over 55% in size
Conditions: RealTime-Glo luminescence; series mostly up to 76.8 µM
Results filed as inconclusive are left out. The source made the active and inactive calls. The call rests on the fitted dose curve; in most records, active means well fitted cell-killing curve with a large enough effect in the repeat runs; inconclusive means weak or mixed curves; inactive means flat fitted curve, though single readings scatter.
Please reply with one of these outcomes: active, inactive

*Q* What outcome does the record of this test show for `NNC(=O)c1cccc(C(=O)NN)c1` ?
*A* inactive

*Q* What outcome does the record of this test show for `O=C(NO)C1(NS(=O)(=O)c2ccc(Oc3ccc(F)cc3)cc2)CCOCC1` ?
*A* inactive

*Q* What outcome does the record of this test show for `Cc1cc(C2CCCCC2)n(O)c(=O)c1` ?
*A* inactive

*Q* What outcome does the record of this test show for `O=C(N/N=C/c1ccccc1O)c1ccncc1` ?
*A* inactive

*Q* What outcome does the record of this test show for `CC(C)c1ccc2c(c1)CC[C@H]1[C@](C)(CN)CCC[C@]21C` ?
*A* active

*Q* What outcome does the record of this test show for `CN(C)C(=O)C1(N2CCCCC2)CCN(CC[C@@]2(c3ccc(Cl)c(Cl)c3)CN(C(=O)c3ccccc3)CCO2)CC1` ?
*A* active

*Q* What outcome does the record of this test show for `CCC(CN)=C(c1ccccc1)c1ccccc1` ?
*A* inactive

*Q* What outcome does the record of this test show for `O=S1(=O)CC(Cl)(Cl)C(Cl)(Cl)C1` ?
*A* active

*Q* What outcome does the record of this test show for `O=c1[nH]cnc2nc[nH]c12` ?
*A* inactive

*Q* What outcome does the record of this test show for CCCCCCCCS(=O)C(C)Cc1ccc2c(c1)OCO2 (stereo not given) ?
*A* inactive

*Q* What outcome does the record of this test show for `CCCCN(CCCC)c1ccc(C(=O)c2ccccc2C(=O)O)c(O)c1` ?
*A* inactive

----------
Test: qHTS assay for identifying genotoxic compounds that show differential cytotoxicity against isogenic chicken DT40 cell lines with known DNA damage response pathways - wild type cell line (AID 743012); note: nearly all actives have a fitted effect of over 60% in size
Conditions: DT40 wild type chicken cells viability, CellTiter-Glo, 40 h; series mostly up to 68.4 µM
Records with an inconclusive call do not appear. Activity calls are given as the source filed them. Calls come from the whole dose curve; as a rule, active = well fitted cell-killing curve with a large enough effect in the repeat runs; inconclusive = weak or mixed curves, or effect the other way; inactive = no such curve, though single readings can be large or run the other way.
Please reply with one of these outcomes: active, inactive

Completed entries (count: 5):
{"MOLECULE": "C[C@@H](NCCCc1cccc(C(F)(F)F)c1)c1cccc2ccccc12", "QUALITATIVE LABEL": "active"}
{"MOLECULE": "CCCCCCCC/C=C\\CCCCCCCCOCCO", "QUALITATIVE LABEL": "active"}
{"MOLECULE": "O=C(NOCC1CC1)c1ccc(F)c(F)c1Nc1ccc(I)cc1Cl", "QUALITATIVE LABEL": "active"}
{"MOLECULE": "CCCCCCCCNC(C)C(O)c1ccc(SC(C)C)cc1 (configuration not stated)", "QUALITATIVE LABEL": "active"}
{"MOLECULE": "Cc1cc(CCN2CCN(c3nsc4ccccc34)CC2)cc2c1NC(=O)CC2(C)C", "QUALITATIVE LABEL": "active"}

*Q* What outcome does the record of this test show for `O=C1CCCc2c1cc1ccc3cccc4ccc2c1c34` ?
*A* inactive

*Q* What outcome does the record of this test show for `CCCCCCCCCCCCCCCS(=O)(=O)Oc1ccccc1` ?
*A* inactive

*Q* What outcome does the record of this test show for `CCCCCCCCCCn1cc[n+](CCCCCCCCCC)c1C` ?
*A* active

*Q* What outcome does the record of this test show for `CCc1cc(Cc2cc(CC)c(N)c(CC)c2)cc(CC)c1N` ?
*A* active

*Q* What outcome does the record of this test show for `O=c1[nH]sc2ccccc12` ?
*A* active

*Q* What outcome does the record of this test show for `O=[N+]([O-])c1cc(Cl)c(Cl)c(Cl)c1Cl` ?
*A* inactive

*Q* What outcome does the record of this test show for Oc1ccc(C2(c3ccc(O)cc3)CC3CC2C2CCCC32)cc1 (configuration not stated) ?
*A* inactive

Every entry's value here was drawn from PubChem BioAssay (Tox21).
